Hey, just so you know, these numbers are from patent US6838019B2.

Protocol details: Solubility test in organic solvents
Assay type: physicochemical
Set-up: key: X: not dissolved; ◯: partially dissolved; ⊚: completely dissolved
Run parameters: 1 mg, room temperature (20 degrees Celsius), methanol
Description: 1 mg of Tb(TMHD)3—DMSO, Tb(TMHD)3—MPSO, Tb(TMHD)3—DPSO, Tb(TMHD)3, Tb(TMHD)3—OPNP are each dissolved under room temperature (20 degrees Celsius) in the following organic solvent: dichlormethane, acetonitrile, toluene, ethyl acetate, hexane, methyl cyclohexane methanol, methy ethyl ketone ether.

Compound	Solubility in methanol
CC(C)(C)C(=O)C=C([O-])C(C)(C)C.CC(C)(C)C(=O)C=C([O-])C(C)(C)C.CC(C)(C)C(=O)C=C([O-])C(C)(C)C.CS(C)=O.[Tb+3]	⊚
CC(C)(C)C(=O)[CH-]C(=O)C(C)(C)C.CC(C)(C)C(=O)[CH-]C(=O)C(C)(C)C.CC(C)(C)C(=O)[CH-]C(=O)C(C)(C)C.[Tb+3] [Tb(TMHD)3, reference compound]	X
CC(C)(C)C(=O)C=C([O-])C(C)(C)C.CC(C)(C)C(=O)C=C([O-])C(C)(C)C.CC(C)(C)C(=O)C=C([O-])C(C)(C)C.O=S(c1ccccc1)c1ccccc1.[Tb+3]	⊚
CC(C)(C)C(=O)C=C([O-])C(C)(C)C.CC(C)(C)C(=O)C=C([O-])C(C)(C)C.CC(C)(C)C(=O)C=C([O-])C(C)(C)C.CS(=O)c1ccccc1.[Tb+3]	⊚

* * *

Protocol details: Solubility test in organic solvents
Assay type: physicochemical
Parameters: key: X: not dissolved; ◯: partially dissolved; ⊚: completely dissolved
Run parameters: 1 mg, room temperature (20 degrees Celsius), ether

Compound	Solubility in ether
CC(C)(C)C(=O)C=C([O-])C(C)(C)C.CC(C)(C)C(=O)C=C([O-])C(C)(C)C.CC(C)(C)C(=O)C=C([O-])C(C)(C)C.O=S(c1ccccc1)c1ccccc1.[Tb+3] [Tb(TMHD)3-DPSO]	⊚
CC(C)(C)C(=O)C=C([O-])C(C)(C)C.CC(C)(C)C(=O)C=C([O-])C(C)(C)C.CC(C)(C)C(=O)C=C([O-])C(C)(C)C.CS(C)=O.[Tb+3] [Tb(TMHD)3-DMSO]	⊚
CC(C)(C)C(=O)C=C([O-])C(C)(C)C.CC(C)(C)C(=O)C=C([O-])C(C)(C)C.CC(C)(C)C(=O)C=C([O-])C(C)(C)C.CS(=O)c1ccccc1.[Tb+3] [Tb(TMHD)3-MPSO]	⊚
CC(C)(C)C(=O)[CH-]C(=O)C(C)(C)C.CC(C)(C)C(=O)[CH-]C(=O)C(C)(C)C.CC(C)(C)C(=O)[CH-]C(=O)C(C)(C)C.[Tb+3] [Tb(TMHD)3, reference compound]	◯

* * *

Protocol details: Solubility test in organic solvents
Assay type: physicochemical
Set-up: key: X: not dissolved; ◯: partially dissolved; ⊚: completely dissolved
Run parameters: 1 mg, room temperature (20 degrees Celsius), acetonitrile

Compound	Solubility in acetonitrile
CC(C)(C)C(=O)[CH-]C(=O)C(C)(C)C.CC(C)(C)C(=O)[CH-]C(=O)C(C)(C)C.CC(C)(C)C(=O)[CH-]C(=O)C(C)(C)C.[Tb+3] [Tb(TMHD)3, reference compound]	X
CC(C)(C)C(=O)C=C([O-])C(C)(C)C.CC(C)(C)C(=O)C=C([O-])C(C)(C)C.CC(C)(C)C(=O)C=C([O-])C(C)(C)C.CS(C)=O.[Tb+3]	◯
CC(C)(C)C(=O)C=C([O-])C(C)(C)C.CC(C)(C)C(=O)C=C([O-])C(C)(C)C.CC(C)(C)C(=O)C=C([O-])C(C)(C)C.O=S(c1ccccc1)c1ccccc1.[Tb+3]	◯
CC(C)(C)C(=O)C=C([O-])C(C)(C)C.CC(C)(C)C(=O)C=C([O-])C(C)(C)C.CC(C)(C)C(=O)C=C([O-])C(C)(C)C.CS(=O)c1ccccc1.[Tb+3]	◯
